Target: MCH-2 (Homo sapiens, UniProt P55212)
Sequence (P55212 24-179 limits assumed): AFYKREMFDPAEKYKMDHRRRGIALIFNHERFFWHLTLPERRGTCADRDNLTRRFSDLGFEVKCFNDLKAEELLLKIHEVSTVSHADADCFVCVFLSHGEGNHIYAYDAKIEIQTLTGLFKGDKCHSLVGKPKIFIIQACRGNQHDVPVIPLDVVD
Sequence (P55212 194-293 limits assumed): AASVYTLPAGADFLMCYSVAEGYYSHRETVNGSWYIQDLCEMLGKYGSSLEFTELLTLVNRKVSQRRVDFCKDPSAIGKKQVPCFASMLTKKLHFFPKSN
Assay: Dissociation constant Ki and irreversible rate constant k3 for irreversible inhibitors, Mch2
Type: biochemical
Conditions: continuous assay 60 min, reaction initiated by adding enzyme
Measured MCH-2 k3/Ki, listed per entry for reference.

compound: CC(C)[C@H](NC(=O)COc1cccc2ccccc12)C(=O)NC(CC(=O)O)C(=O)CF (mixture of isomers) [Example 53]
MCH-2 k3/Ki: 36,800 M^−1s^−1
--
compound: CCCCCCP(=O)(OCC(=O)[C@H](CC(=O)O)NC(=O)[C@@H](NC(=O)COc1cccc2ccccc12)C(C)C)c1ccc(F)cc1 (stereo partly drawn) [Example 109]
MCH-2 k3/Ki: 16,800 M^−1s^−1
--
compound: CC(C)[C@H](NC(=O)COc1cccc2ccccc12)C(=O)N[C@@H](CC(=O)O)C(=O)COc1cc(F)c(F)cc1F [Example 77]
MCH-2 k3/Ki: 630 M⁻¹ s⁻¹
--
compound: CC(C)[C@H](NC(=O)CCOc1cccc2ccccc12)C(=O)N[C@@H](CC(=O)O)C(=O)COC(=O)c1c(Cl)cccc1Cl [Example 158]
MCH-2 k3/Ki: 103,000 M^−1s^−1
--
compound: CC(C)[C@H](NC(=O)COc1cccc2ccccc12)C(=O)N[C@@H](CC(=O)O)C(=O)COc1c(F)ccc(F)c1F [Example 76]
MCH-2 k3/Ki: 81,700 M^−1s^−1
--
compound: CC(C)[C@H](NC(=O)COc1ccc2ccccc2c1)C(=O)N[C@@H](CC(=O)O)C(=O)COc1c(F)c(F)cc(F)c1F [Example 157]
MCH-2 k3/Ki: 72,000 M^−1s^−1
